Reference source for all entries: patent US20190367516A1

Consider the following compounds; for each one, report its pEC50.
Target: UniProt P08172
Settings: Receptor activity EC50, allosteric potency at EC20 acetylcholine; M2-GIRK1/4 reporter cells; in some cases mean of two or more determinations
Answers are plain numbers, as −log10 of the molar value.

Example entries and their recorded answers appear below.
{"columns": ["Compound", "pEC50"],
 "data": [
  ["CC[C@@H](COC(F)(F)F)NC(=O)c1cn(-c2c(F)cc(F)cc2F)c2nc(N3C[C@@H](C)NC3=O)ccc2c1=O (single isomer, unassigned) [Example 455]", 8.00],
  ["CC[C@@H](NC(=O)c1cn(-c2ccc(F)cc2F)c2nc(N3C(=O)CC(O)C3C)ccc2c1=O)C(F)(F)F (stereo partly drawn)", 7.16],
  ["O=C(N[C@@H](C1CC1)C(F)(F)F)c1cn(-c2c(F)cc(F)cc2F)c2nc(N3CC(O)C3)ccc2c1=O", 7.42]
]}

Quick batch: pEC50 for everything below.
1. CCC(NC(=O)c1cn(-c2c(F)cc(F)cc2F)c2nc(N3C[C@@H](O)CC3=O)ccc2c1=O)C(C)C (mixture of isomers) [Example 484]
2. CC(C)(CC(F)(F)F)NC(=O)c1cn(-c2c(F)cc(F)cc2F)c2nc(N3C[C@@H](O)CC3=O)ccc2c1=O
3. CC[C@H](NC(=O)c1cn(-c2c(F)cc(F)cc2Cl)c2nc(N3C[C@@H](O)CC3=O)ccc2c1=O)C(F)(F)F [Example 398]

[8.22, 8.05, 8.00]

###

Target: human M2 receptor (Homo sapiens, UniProt P08172)
Sequence (P08172 whole entry): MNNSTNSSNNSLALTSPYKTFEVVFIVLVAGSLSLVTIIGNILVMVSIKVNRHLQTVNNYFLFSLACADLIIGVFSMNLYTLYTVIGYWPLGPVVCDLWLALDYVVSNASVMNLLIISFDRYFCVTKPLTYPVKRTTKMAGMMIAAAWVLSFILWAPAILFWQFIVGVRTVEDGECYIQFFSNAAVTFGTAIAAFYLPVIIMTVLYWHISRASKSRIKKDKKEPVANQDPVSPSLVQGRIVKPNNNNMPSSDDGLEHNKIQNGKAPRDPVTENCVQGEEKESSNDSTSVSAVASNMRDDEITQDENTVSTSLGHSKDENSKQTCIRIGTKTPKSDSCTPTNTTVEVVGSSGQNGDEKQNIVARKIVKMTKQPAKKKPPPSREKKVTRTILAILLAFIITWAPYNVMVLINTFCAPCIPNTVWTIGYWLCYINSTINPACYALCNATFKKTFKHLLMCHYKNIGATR
Conditions: Receptor activity EC50, allosteric potency at EC20 acetylcholine; M2-GIRK1/4 reporter cells; in some cases mean of two or more determinations
Binarize EC50 at 0.02 µM; below is fulfilled, at or above is not fulfilled.

{"columns": ["Molecule", "Group Label"],
 "data": [
  ["CC(NC(=O)c1cn(-c2ccc(F)cc2F)c2nc(N3C[C@@H](O)CC3=O)ccc2c1=O)C(F)(F)C(F)(F)F (mixture of isomers) [Example 622]", "not fulfilled"],
  ["C[C@@H](NC(=O)c1cn(-c2c(F)cc(F)cc2F)c2nc(N3C[C@@H](O)[C@H](O)C3)ccc2c1=O)C1CC1", "not fulfilled"],
  ["O=C(NC(CC(F)(F)F)C1CC1)c1cn(-c2c(F)cc(F)cc2F)c2nc(N3C[C@@H](O)CC3=O)ccc2c1=O (single isomer, unassigned) [Example 513]", "fulfilled"],
  ["O=C(N[C@@H](C1CC1)C(F)(F)F)c1cn(-c2c(F)cc(F)cc2F)c2nc(N3CCCC[C@@H]3CO)ccc2c1=O", "fulfilled"],
  ["CC(NC(=O)c1cn(-c2c(F)cc(F)cc2F)c2nc(N3C[C@@H](O)CC3=O)ccc2c1=O)C(F)(F)C(F)(F)F (mixture of isomers) [Example 529]", "fulfilled"],
  ["CC[C@H](NC(=O)c1cn(-c2c(F)cc(F)cc2F)c2nc(N3CCC(CO)(CO)CC3)ccc2c1=O)C(F)(F)F", "not fulfilled"],
  ["O=C(NC(CC(F)(F)F)C(F)(F)F)c1cn(-c2c(F)cc(F)cc2F)c2nc(N3C[C@@H](O)CC3=O)ccc2c1=O (mixture of isomers) [Example 606]", "not fulfilled"],
  ["O=C(N[C@H](C1CC1)C(F)(F)F)c1cn(-c2c(F)cc(F)cc2F)c2nc(N3CC4CC4(O)C3)ccc2c1=O (stereo partly shown)", "fulfilled"],
  ["CC(NC(=O)c1cn(-c2c(F)cc(F)cc2F)c2nc(N3C[C@@H](C)NC3=O)ccc2c1=O)C(F)(F)C(F)(F)F (single isomer, unassigned) [Example 459]", "fulfilled"],
  ["O=C(Nc1c(Cl)cccc1Cl)c1cn(-c2ccc(F)cc2F)c2nc(N3C[C@@H](O)[C@@H](O)C3)ccc2c1=O", "not fulfilled"]
]}

Just wondering, is EC50 of "COC(=O)N1CCN(c2ccc3c(=O)c(C(=O)Nc4c(Cl)cccc4Cl)cn(-c4c(F)cc(F)cc4F)c3n2)CC1" below 0.02 µM?
fulfilled

Confirm or reject: EC50 of CC(NC(=O)c1cn(-c2c(F)cc(F)cc2F)c2nc(N3CCNC3=O)ccc2c1=O)C(F)(F)C(F)(F)F (racemic) [Example 540] lies strictly below 0.02 µM
fulfilled

State whether 0.02 µM exceeds EC50 recorded for "C[C@@H]1CN(c2ccc3c(=O)c(C(=O)NC(C)(C)CC(F)(F)F)cn(-c4c(F)cc(F)cc4F)c3n2)C(=O)N1" .
fulfilled
